FYI, the data here is from patent US20070299013A1.

# test-target: T1, human prothrombin (human, UniProt P00734 44-622)
# T1 construct: Zymogen substrate of prothrombinase; also called factor II
# assay-summary: calculated from IC50 (1.6 µM) of prothrombinase inhibition, IC50=Ki(1+S0/Km)
measured-parameter: Ki
Write the quantity with the unit trailing the number.

What does the record list as Ki for DYDYQ (Synthetic, non-sulfonated pentapeptide; also called D5Q) [pentapeptide DYDYQ (Asp695-Tyr696-Asp697-Tyr698-Gln699 of human factor Va heavy chain)] ? 850 nM
